testedTarget: T1, biotinylated human VWF cysteine knot (CK) domain construct (human, UniProt P04275 2724-2813, biotinylated in vitro (BirA) on the biotinylation tag; one N-glycan)
T1 construct: Expressed in HEK293 EBNA cells; disulfide-linked homodimer; also called human VWF CK; human VWF CK domain; not shown: in vitro biotinylation tag, HRV-3C site and 3 VWF residues before the CK domain
methodNotes: SPR, scFv captured via anti-SV5, CK domain injected, pH 5.5, apparent Kd;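 further: scFvs from crude yeast supernatants captured on chip-bound anti-SV5 antibody, Kd computed as koff divided by kon, dimeric CK construct likely makes affinity appear higher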
endpointLabel: Kd (nM)
Could you give me the number in nM? Just the number is fine.

Query: Identify measured Kd corresponding to Lib1_P1_E9_scFv (scFv, VH-linker-VL; not shown: C-terminal 3xFLAG and SV5 tags) scFv: QVQLVQSGAEVKKPGASVKVSCKVSGYTFTSHIIHWVRQAPGKGLEWMGGMNPYSNKAIYAQKFQGRVTMTEDTSTDTAYMELSSLKSEDTAVYYCARDASDYGDYGYYYYYMDVWGKGTTVTVSSSGGSTITSYNVYYTKLSSSGTDIQMTQSPSSVSASVGDRVTITCRASQYIGNDLAWYQQKPGKAPKLLIYEASQRPSGVPSRFSGSGSGTDFTLTISSLQPEDFANYYCQQQYNYPLTFGGGTKVEIK
Response: 0.639

Query: Identify measured Kd corresponding to 399_Lib1_scFv (scFv, VH-linker-VL; not shown: C-terminal 3xFLAG and SV5 tags) scFv: QVQLVQSGAEVKKPGASVKVSCKVSGITFTSDYIHWVRQAPGKGLEWMGGMNPYSNKAIYAQKFQGRVTMTEDTSTDTAYMELSSLKSEDTAVYYCATGGLRIAARTSYFDYWGQGTLVTVSSSGGSTITSYNVYYTKLSSSGTDIQMTQSPSSVSASVGDRVTITCRASMDIAGSLAWYQQKPGKAPKLLIYDTSFRATGVPSRFSGSGSGTDFTLTISSLQPEDFANYYCQQYDNPPRLTFGGGTKVEIK
Response: 0.127

Query: Identify measured Kd corresponding to 4675_Lib4_scFv (scFv, VH-linker-VL; not shown: C-terminal 3xFLAG and SV5 tags) scFv: QVQLQESGPGLVKPSQTLSLTCTVSGFSLTSHPEGVNWIRQPPGKGLEWIGYIAHSGTTDYNPSLKSRVTMSVDTSKNQFSLKVNSVTAADTAVYYCARAYGDSDAFDIWGQGTMVTVSSSGGSTITSYNVYYTKLSSSGTEIVMTQSPATLSLSPGERATLSCRASQSIGRNLAWYQQKPGQAPRLLIYGASKRVTGIPARFSGSGSGTDFTLTISSLEPEDFAVYYCQQYSTWPTFGGGTKVEIK
Response: 13.6

Query: Identify measured Kd corresponding to Lib6_P3_B9_scFv (scFv, VH-linker-VL; not shown: C-terminal 3xFLAG and SV5 tags) scFv: EVQLVQSGAEVKKPGASVKVSCKASGDTFSSHVISWVRQAPGQGLEWMGGINPRTGTTIYAQKLQGRGTMTTDPSTSTAYMELRSLRSDDTAVYYCARTRPWAGLDVWGQGTTVTVSSSGGSTITSYNVYYTKLSSSGTESALTQPASVSGSPGQSITISCTGTNIEYKGVSWYQQHPGKAPKLMIYGVDKRPSGVSNRFSGSKSGNTASLTISGLQAEDEADYYCQAWGTSTAIFGGGTKLTVL
Response: 1.22

Query: Identify measured Kd corresponding to Lib1_P1_F10_scFv (scFv, VH-linker-VL; not shown: C-terminal 3xFLAG and SV5 tags) scFv: QVQLVQSGAEVKKPGASVKVSCKVSGYTFSSSGIHWVRQAPGKGLEWMGGIFPNFGTAIYAQKFQGRVTMTEDTSTDTAYMELSSLKSEDTAVYYCARESDFWSGSFTNWGQGTLVTVSSSGGSTITSYNVYYTKLSSSGTDIQMTQSPSSVSASVGDRVTITCRASRSIGNWLAWYQQKPGKAPKLLIYDAFNRASGVPSRFSGSGSGTDFTLTISSLQPEDFANYYCQQSYSTLPRYSFGGGTKVEIK
Response: 15.3
